# IC50 listing for each entry below
- Tested on: Leishmania mexicana promastigotes
- assay_method_text: Half-inhibitory concentration on parasites, modified MTT method
- Format: cell-based
- settings: Leishmania mexicana, 48 h, read-out: IC50 on L. mexicana promastigotes
Give the value, in units of µM, as a plain number.

Before answering, review these 3 worked examples.
> print(dat)
                                   molecule  numeric.value
1  CC(C)C(C)C=CC(C)C1CCC2C3=CC(=O)C4(O)CC(=O)CCC4(C)C3CCC21C (stereo not drawn) [Ergosterone]              9
2  CC(C)C(C)C=CC(C)C1CCC2C3=CC(=NNC(=O)n4cnnc4)C4(O)CC(=O)CCC4(C)C3CCC21C (stereo not drawn) [Erg-GTr]            1.4
3                      NNC(=O)n1cnnc1 [GTr]            158

### Prompt Any idea what its IC50 is? The molecule is CC(C)C(C)C=CC(C)C1CCC2C3=CC=C4CC(O)CCC4(C)C3CCC21C (stereo not drawn) [Ergosterol, reference compound]
### Response 33.8
